biological target: T1, Dimeric fibrinogen-like domain of monkey (Macca fascicularis) Ang-2 conjugated to human IgG1 (monkey (Macca fascicularis)); test: SPR, hIgG1 antibody captured, room temp
T1 construct: also called Dimeric Monkey Ang-2FD; Monkey Ang-2FD-hFc
T1 sequence (chain, as listed by the source limits assumed): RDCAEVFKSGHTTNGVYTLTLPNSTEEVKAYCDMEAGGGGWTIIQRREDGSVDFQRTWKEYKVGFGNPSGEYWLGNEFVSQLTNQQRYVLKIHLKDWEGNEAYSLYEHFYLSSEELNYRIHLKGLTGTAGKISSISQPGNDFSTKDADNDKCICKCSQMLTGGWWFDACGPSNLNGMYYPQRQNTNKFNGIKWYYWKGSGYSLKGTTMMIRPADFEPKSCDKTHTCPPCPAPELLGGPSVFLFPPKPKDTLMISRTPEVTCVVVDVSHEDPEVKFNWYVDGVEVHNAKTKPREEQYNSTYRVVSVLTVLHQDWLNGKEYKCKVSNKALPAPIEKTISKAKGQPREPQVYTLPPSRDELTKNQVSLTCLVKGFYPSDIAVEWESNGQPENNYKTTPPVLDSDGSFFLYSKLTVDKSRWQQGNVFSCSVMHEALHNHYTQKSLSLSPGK
Kindly apply the following: true (1) if T1/2 is less than 3 h, false (0) in every other case.

* H1H732N (antibody, V domains shown) VH: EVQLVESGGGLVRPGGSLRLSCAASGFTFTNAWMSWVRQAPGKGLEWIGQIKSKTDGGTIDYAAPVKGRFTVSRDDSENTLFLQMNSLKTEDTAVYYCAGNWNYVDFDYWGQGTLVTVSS VL: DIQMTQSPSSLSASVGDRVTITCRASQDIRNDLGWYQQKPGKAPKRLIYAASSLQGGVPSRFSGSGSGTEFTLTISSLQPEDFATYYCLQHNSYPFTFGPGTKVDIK | true (1)
* H1H724N (antibody, V domains shown) VH: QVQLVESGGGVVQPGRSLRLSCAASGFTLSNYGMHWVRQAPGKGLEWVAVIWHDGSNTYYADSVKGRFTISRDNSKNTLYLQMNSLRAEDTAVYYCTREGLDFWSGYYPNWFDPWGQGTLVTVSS VL: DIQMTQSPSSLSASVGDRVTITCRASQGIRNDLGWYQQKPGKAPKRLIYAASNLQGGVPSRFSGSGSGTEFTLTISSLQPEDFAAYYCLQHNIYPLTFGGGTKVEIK | true (1)
* H1H696P (antibody, V domains shown) VH: QVQLVESGGGLVKPGGSLRLSCAASGFTFSDYYMSWIRQAPGKGLEWVSYISYTGRTIYYADSVKGRFTISRDNAKNSLYLQMNSLRAEDTAVYYCARDTDYGDFFDYWGQGTLVTVSS VL: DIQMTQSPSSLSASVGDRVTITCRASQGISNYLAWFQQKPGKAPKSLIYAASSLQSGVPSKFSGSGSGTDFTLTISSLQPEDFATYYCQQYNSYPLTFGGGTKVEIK | true (1)
* H1H744N (antibody, V domains shown) VH: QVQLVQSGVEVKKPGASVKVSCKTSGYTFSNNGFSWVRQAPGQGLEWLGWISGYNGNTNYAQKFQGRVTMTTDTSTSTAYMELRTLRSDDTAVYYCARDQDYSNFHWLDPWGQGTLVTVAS VL: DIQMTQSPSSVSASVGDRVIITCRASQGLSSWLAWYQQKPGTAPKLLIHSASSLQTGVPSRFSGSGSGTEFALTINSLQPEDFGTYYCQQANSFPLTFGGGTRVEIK | true (1)
* H1H730N (antibody, V domains shown) VH: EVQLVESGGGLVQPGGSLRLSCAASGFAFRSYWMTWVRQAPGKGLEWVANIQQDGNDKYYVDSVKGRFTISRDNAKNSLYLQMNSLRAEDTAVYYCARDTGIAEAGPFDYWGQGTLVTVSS VL: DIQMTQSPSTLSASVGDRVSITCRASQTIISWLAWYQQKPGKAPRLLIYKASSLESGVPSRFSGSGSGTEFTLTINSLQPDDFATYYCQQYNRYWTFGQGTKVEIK | true (1)
* H1H742N (antibody, V domains shown) VH: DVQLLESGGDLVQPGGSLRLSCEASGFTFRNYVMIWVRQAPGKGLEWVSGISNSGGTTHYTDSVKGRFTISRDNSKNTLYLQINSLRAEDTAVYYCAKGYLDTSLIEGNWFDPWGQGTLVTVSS VL: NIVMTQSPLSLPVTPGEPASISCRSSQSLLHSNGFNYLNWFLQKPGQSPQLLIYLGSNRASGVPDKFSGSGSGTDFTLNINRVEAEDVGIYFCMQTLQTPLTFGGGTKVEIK | true (1)
* H1H728N (antibody, V domains shown) VH: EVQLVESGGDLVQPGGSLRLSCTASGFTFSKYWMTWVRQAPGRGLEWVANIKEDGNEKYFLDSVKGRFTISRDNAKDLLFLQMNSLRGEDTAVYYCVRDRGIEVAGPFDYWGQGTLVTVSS VL: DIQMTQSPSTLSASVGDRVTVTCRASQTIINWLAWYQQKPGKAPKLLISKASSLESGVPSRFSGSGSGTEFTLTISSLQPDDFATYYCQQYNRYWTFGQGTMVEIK | true (1)
* H1H750N (antibody, V domains shown) VH: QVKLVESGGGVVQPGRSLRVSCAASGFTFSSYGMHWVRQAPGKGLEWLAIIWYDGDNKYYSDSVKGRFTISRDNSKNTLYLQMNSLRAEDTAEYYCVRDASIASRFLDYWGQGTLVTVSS VL: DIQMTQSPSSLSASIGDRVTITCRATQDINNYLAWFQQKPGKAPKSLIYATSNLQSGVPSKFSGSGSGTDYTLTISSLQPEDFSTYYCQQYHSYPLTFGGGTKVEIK | false (0)
* H1H693P (antibody, V domains shown) VH: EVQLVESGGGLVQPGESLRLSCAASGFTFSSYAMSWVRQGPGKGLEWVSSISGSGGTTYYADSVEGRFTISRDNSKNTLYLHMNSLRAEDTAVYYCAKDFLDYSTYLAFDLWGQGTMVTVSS VL: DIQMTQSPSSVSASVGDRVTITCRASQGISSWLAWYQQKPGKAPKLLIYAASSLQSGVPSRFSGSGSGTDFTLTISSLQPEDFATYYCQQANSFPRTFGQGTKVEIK | true (1)

Please turn your attention to the following entry.
Confirm or reject: T1/2 of H1H690P (antibody, V domains shown) VH: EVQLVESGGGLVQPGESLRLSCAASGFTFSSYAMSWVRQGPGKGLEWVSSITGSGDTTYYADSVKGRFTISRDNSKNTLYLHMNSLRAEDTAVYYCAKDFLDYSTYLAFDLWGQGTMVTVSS VL: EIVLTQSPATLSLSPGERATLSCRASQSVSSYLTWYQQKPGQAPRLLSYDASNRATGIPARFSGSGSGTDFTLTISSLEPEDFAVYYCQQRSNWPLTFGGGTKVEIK lies strictly below 3 h
false (0)

Where do these numbers come from? They come from patent US20150147342A1.
